Provide the recorded cell viability (log2) for the entries that follow.
test system: A673/TR/shEF; assay: cell viability (LOESS-normalised, relative to median of negative controls) (log2 ratio); higher = more viable cells (less compound effect), active = hit call of the paper (over 3 MAD below the median); conditions: 2.5 µM; library screen: screen1; EWS-FLI1 expression: high (no doxycycline); treatment time: 72 h
In all, about 3,200 compounds went through this assay and about 300 (9.4%) showed activity. Only a selection was taken, and actives are over-represented in it overall.
Answer as a number with no unit attached.

Task: Report cell viability (log2), nothing else, for this compound: CCC(C)C(OC(C)=O)C(=O)O[C@H]1[C@H](O)C2[C@@]3(C)C=CC(=O)C(C)(C)C3C[C@@H](OC(=O)C(O)C(C)C)[C@@]2(C)[C@@]23O[C@@H]2C[C@@H](c2ccoc2)[C@]13C (some centres undefined)
Result: 0.0934

Task: Read off the recorded cell viability (log2) for CC(=O)O[C@@H]1CC2C(C)(C)[C@H](O)C=C[C@]2(C)C2CC[C@]3(C)C(=CC(=O)O[C@H]3c3ccoc3)[C@@]21C (some centres undefined)
Result: 0.222

Task: Answer with the recorded cell viability (log2) of CC(C)c1cc2c(c(O)c1O)[C@@]1(C(=O)O)CCCC(C)(C)[C@@H]1CC2 only.
Result: 0.115

Task: Return reported cell viability (log2). Input compound: CN1[C@H]2CC(OC(=O)C(CO)c3ccccc3)C[C@H]1[C@H]1O[C@H]12 (some centres undefined)
Result: 0.101

Task: Give a short answer stating reported cell viability (log2) for O=c1ccc2cc(O[C@@H]3OC(CO)[C@@H](O)C(O)C3O)c(O)cc2o1 (some centres undefined) .
Result: 0.201

Task: Look up and report measured cell viability (log2) for this entry: CC1CC(Cl)CCC1C(=O)OC(C)(C)C (centres undefined)
Result: 0.151

Task: Note cell viability (log2) for the compound shown: C[C@@H]1C[C@H]2CC(=O)[C@H]3CCCN4CCC[C@H]2[C@]34C1
Result: 0.108

Task: Provide only the value of recorded cell viability (log2) for COc1c2c(cc3c1OCO3)[C@]13C=C[C@H](OC)C[C@H]1N(C2)CC3O (some centres undefined)
Result: 0.0133

Task: Kindly indicate its recorded cell viability (log2). Item: O=P1(N(CCCl)CCCl)NCCCO1 (centres undefined)
Result: 0.228

Origin of values: the supplement of paper PMC6089552
